B1: ELF3 (parent)
chain: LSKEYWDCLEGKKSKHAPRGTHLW

Variants of: B1
Assay Overview: protein stability index of a GFP-peptide fusion (GPS, HEK-293T) (PSI 1-6); higher = more stable;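 further: lentivirally expressed fusions sorted by FACS into six bins by GFP to DsRed ratio, PSI derived from sequencing read proportions per bin multiplied by bin number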
Test Parameters: c terminus: a fixed tail appended
For each entry below, report its protein stability index value.
Answer with a bare number; do not write a unit.

For the variant `L9I` , report protein stability index.
3.04

For the variant `D7P` , report protein stability index.
2.04

For the variant `A17N` , report protein stability index.
2.99

For the variant `K3R` , report protein stability index.
2.93

For the variant `K12F` , report protein stability index.
2.71

For the variant `G20Q` , report protein stability index.
3.06

For the variant `A17H` , report protein stability index.
2.5

For the variant `E4V` , report protein stability index.
2.53

For the variant `H22Q` , report protein stability index.
3.05

For the variant `C8R` , report protein stability index.
3.2

For the variant `D7H` , report protein stability index.
2.33

For the variant `W6K` , report protein stability index.
3.65

For the variant `E4G` , report protein stability index.
1.99

For the variant `E4H` , report protein stability index.
1.89

For the variant `E10C` , report protein stability index.
2.07

For the variant `Y5W` , report protein stability index.
2.66

For the variant `K12W` , report protein stability index.
1.54

For the variant `T21H` , report protein stability index.
2.66

For the variant `L9A` , report protein stability index.
3.38

For the variant `G11M` , report protein stability index.
1.94

For the variant `P18W` , report protein stability index.
2.24

For the variant `L1A` , report protein stability index.
2.79

For the variant `L1I` , report protein stability index.
2.37

For the variant `H22C` , report protein stability index.
2.45

For the variant `S14Y` , report protein stability index.
3.48

For the variant `D7A` , report protein stability index.
2.28

For the variant `L23E` , report protein stability index.
4.03

For the variant `S14E` , report protein stability index.
3.16

For the variant `E10A` , report protein stability index.
2.52

For the variant `D7S` , report protein stability index.
2.44

For the variant `H16L` , report protein stability index.
2.68

For the variant `P18Y` , report protein stability index.
2.73

For the variant `G11Q` , report protein stability index.
2.69

For the variant `S14D` , report protein stability index.
4.18

For the variant `H16D` , report protein stability index.
3.25

For the variant `E4L` , report protein stability index.
2.06

For the variant `R19A` , report protein stability index.
3.06

For the variant `G20Y` , report protein stability index.
2.78

For the variant `K13P` , report protein stability index.
2.47

For the variant `H16M` , report protein stability index.
2.3

For the variant `C8D` , report protein stability index.
3.97

For the variant `G11E` , report protein stability index.
3.29

For the variant `L1W` , report protein stability index.
1.97

For the variant `K3E` , report protein stability index.
2.97

For the variant `H16N` , report protein stability index.
3.2

For the variant `K3P` , report protein stability index.
2.56

The values you see were collected from the supplement of paper PMC10567573.
